meta.source: patent US20230203060A1

test system: KRAS G12C mutant NCI-H358 cells; test: Cell proliferation inhibition experiment, 3D spheroid, CellTiter-Glo, NCI-H358; type: cell-based, human; conditions: Homo sapiens, NCI-H358, 120 h, NCI-H358 (KRAS G12C mutant) 3D spheroid, 5 days with compound, CellTiter-Glo; read-out: H358 IC50
property measured: pIC50
Numbers only, as −log10 of the molar value.

List pIC50 for every entry below, keeping the order given.
1. C=CC(=O)N1CCN2C(=O)c3c(N4CCN(C)[C@H](C)[C@@H]4C)nc(-c4c(O)cccc4F)c(Cl)c3OC[C@H]2C1 (single isomer, unassigned) [Z308a-1]
2. C=CC(=O)N1CCN2C(=O)c3c(N4C[C@](C)(O)CC4(C)C)nc(-c4c(O)cccc4F)c(Cl)c3OC[C@H]2C1 (single isomer, unassigned)

Result:
1. 8.15
2. 7.95

Task: Give the measured pIC50 of C=CC(=O)N1CCN2C(=O)c3c(N4C[C@@H](N(C)C)CC4(C)C)nc(-c4ccccc4F)c(Cl)c3OC[C@H]2C1 .
Result: 8.22
